- experimental system: T1, TIA1 RRM2_3 (human, UniProt P31483-2 93-274)
- T1 sequence: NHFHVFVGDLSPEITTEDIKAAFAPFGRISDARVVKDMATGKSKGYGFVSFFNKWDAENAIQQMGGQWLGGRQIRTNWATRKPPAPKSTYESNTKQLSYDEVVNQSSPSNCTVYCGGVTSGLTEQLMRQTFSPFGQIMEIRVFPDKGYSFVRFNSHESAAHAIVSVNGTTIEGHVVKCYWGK
- test description: EMSA; EMSA: 10 mM sodium phosphate pH 6.5, 50 mM NaCl, 1 mM DTT, 1 U/ul SUPERase-In, room temperature 20 min, native 1.2% agarose; RNA annealed in 10 mM Tris-HCl pH 7.5, 100 mM KCl
- study conditions: protein: recombinant; tags: His6-SUMO removed by SUMO protease; label: 5'-Cy3; hairpin, 3-nt loop
value kind: Kd (µM)
Supply the numeric figure in µM, leaving out any unit text.

Challenge: May I ask what Kd has been recorded for UGUUCUAAGAACUUUAA (structured_RNA) [SL3-HP3] ?
Response given: 3.87
